Attribution: the supplement of paper PMC10065799

Tested on: AncSZ;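 further: 11-residue human phosphosite peptides and single-mutation variants displayed on the E. coli surface, counted by deep sequencing, each peptide's frequency after selection divided by its frequency in the unselected input library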;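 further: frequency after pTyr selection over input frequency; kinase dosed for 20-30% of maximal phosphorylation in three min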
Test: phosphorylation enrichment, bacterial display (enrichment ratio); higher = better substrate or ligand; peptides without Tyr show the background
readout_type: phosphorylation enrichment
Form field (numeric): enter value without unit.

These solved cases illustrate the format of a correct answer.
QQLVAYYSKHT [SRC_Y232_A237T] ... 1.13
IYKAAYFGVYD [SLC25A4_Y191_R188K] ... 1.17
ALPGEYIPTVF [RAC1_Y32_F28L] ... 1.1

*Q* Fill blank: measured phosphorylation enrichment of the sequence EQRRAYLEGTC [HLA-C_Y183_L180R] is ____.
*A* 0.832

*Q* Try the sequence NFDRVYIFHLR [MYOF_Y1137_YF]
*A* 1.19

*Q* What about QDDTVYMGKVI [DCTN1_Y1244_T1249I] ?
*A* 1.72

*Q* # iterate: ISGLKYPVSQQ [BTK_Y375_R372G]
*A* 0.529

*Q* Same again, this time with RLRKFYLGKFL [KLB_Y906_YF]
*A* 0.631

*Q* Query LTNDRYLATLT [IL6ST_Y396] next
*A* 0.761
